Assay notes: Oral pharmacokinetic study in rats (plasma, UPHILIC-MS/MS, non-compartmental analysis)
Format: in vivo, wistar albino rats
Experimental conditions: Wistar albino, rat, plasma, po, 15 mg/kg, Mean of six rats (supplement), oral ALP 20 mg/kg and LES 15 mg/kg; read-out: Cmax
Reported metric: Cmax (ng/mL)
Use ng/mL as the unit, but write only the number.

Problem: Which Cmax value is on record for `O=C(O)CSc1nnc(Br)n1-c1ccc(C2CC2)c2ccccc12` ?
Solution: 8270

---

Assay notes: Oral pharmacokinetic study in rats (plasma, UPHILIC-MS/MS, non-compartmental analysis)
Assay type: in vivo, wistar albino rats
Experimental conditions: Wistar albino, rat, plasma, po, 20 mg/kg, individual animal (rats R1-R6), oral ALP 20 mg/kg and LES 15 mg/kg; read-out: Tmax
Reported metric: Tmax (min)
Use min as the unit, but write only the number.

Problem: Which Tmax value is on record for `Oc1ncnc2[nH]ncc12` ?
Solution: 19.8
